# System: breast cancer cell line MX-1
# runDescription: MX-1 cell line proliferation assay
# Assay type: cell-based
# appliedConditions: Homo sapiens, MX1, 72 h, MX-1 cells, 3-day proliferation assay, Cell Titer Glo; read-out: Cellular proliferation EC50
# Experimental: The impact of compounds of the Examples on cancer cell proliferation was determined using the breast cancer cell line MX-1 (ATCC) in a 3-day proliferation assay and the data are reported in Table 1. […] Luminescence readings from the Cell Titer Glo assay were normalized to the DMSO treated cells and analyzed using the GraphPad Prism software with sigmoidal curve fitting to obtain EC50s. […]

{"columns": ["molecule", "EC50"],
 "data": [
  ["Cn1cc(-c2cc(S(C)(=O)=O)ccc2NCC2C[C@@H]3CC[C@H]2C3)c2cc[nH]c(=O)c21 (stereo partly shown) [Example 71]", "255 nM"],
  ["CC(=O)N1CCC(Oc2ccc(S(C)(=O)=O)cc2-c2cn(C)c3c(=O)[nH]ccc23)CC1 [Example 67]", "> 3000 nM"],
  ["Cn1cc(-c2cc(CNCC3CC3)ccc2Oc2ccc(F)cc2F)c2cc[nH]c(=O)c21 [Example 118]", "1510 nM"],
  ["CCc1cc2c(-c3cc(CS(C)(=O)=O)ccc3Oc3ccc(F)cc3F)cn(C)c2c(=O)[nH]1 [Example 92]", "8 nM"]
]}
